B1: VTI1B (parent)
chain: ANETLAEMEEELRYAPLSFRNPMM

variants of: B1; test: protein stability index of a GFP-peptide fusion (GPS, HEK-293T) (PSI 1-6); higher = more stable; conditions: c terminus: a fixed tail appended;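 note: lentivirally expressed fusions sorted by FACS into six bins by GFP to DsRed ratio, PSI derived from sequencing read proportions per bin multiplied by bin number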
Listed here: items and their measured protein stability index.
API note: the answer field is a bare number with no unit suffix.

A1P: 2.37

Task item: Given the variant `E7A` , write its reported protein stability index.
Reply: 2.85

Task item: Given the variant `T4A` , write its reported protein stability index.
Reply: 2.15

Task item: Given the variant `P16K` , write its reported protein stability index.
Reply: 2.92

Task item: Given the variant `P22S` , write its reported protein stability index.
Reply: 3.48

Task item: Given the variant `A1K` , write its reported protein stability index.
Reply: 2.04

Task item: Given the variant `T4N` , write its reported protein stability index.
Reply: 2.79

Task item: Given the variant `R20W` , write its reported protein stability index.
Reply: 2.48

Task item: Given the variant `M8S` , write its reported protein stability index.
Reply: 3.14

Task item: Given the variant `L5A` , write its reported protein stability index.
Reply: 2.7

Task item: Given the variant `M23C` , write its reported protein stability index.
Reply: 3.62

Task item: Given the variant `M23V` , write its reported protein stability index.
Reply: 1.83

Task item: Given the variant `M23F` , write its reported protein stability index.
Reply: 2.62

Task item: Given the variant `A15S` , write its reported protein stability index.
Reply: 1.61

Task item: Given the variant `R13W` , write its reported protein stability index.
Reply: 2.03

Task item: Given the variant `L17K` , write its reported protein stability index.
Reply: 3.69
